Biological target: T1, human IL-12 (human, UniProt P29460 23-328; P29459 23-219)
T1 construct: Recombinant (Peprotech); FLAG-tagged IL-12 in the flow cytometry assays, biotinylated in the IL-12Rβ2 assay; also called hIL-12
T1 sequence 1: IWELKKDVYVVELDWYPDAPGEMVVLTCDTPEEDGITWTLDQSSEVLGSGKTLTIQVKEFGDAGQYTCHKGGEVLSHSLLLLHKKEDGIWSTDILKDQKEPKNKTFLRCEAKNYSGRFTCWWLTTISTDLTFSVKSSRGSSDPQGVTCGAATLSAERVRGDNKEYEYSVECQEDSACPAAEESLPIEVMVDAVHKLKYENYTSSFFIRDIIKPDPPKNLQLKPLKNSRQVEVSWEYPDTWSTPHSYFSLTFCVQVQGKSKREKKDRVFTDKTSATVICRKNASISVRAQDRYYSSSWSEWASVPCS
T1 sequence 2: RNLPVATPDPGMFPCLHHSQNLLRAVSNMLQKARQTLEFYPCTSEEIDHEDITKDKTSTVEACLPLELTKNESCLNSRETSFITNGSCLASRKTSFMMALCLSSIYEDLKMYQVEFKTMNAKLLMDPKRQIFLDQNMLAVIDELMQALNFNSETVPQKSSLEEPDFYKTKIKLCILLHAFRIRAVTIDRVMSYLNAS
Assay: SPR, single 81 nM analyte, scFv via FLAG
PARAMETER: pKd
Scale for pKd: -log10 of concentration given in mol/L; no unit attached.

I'd like to know its pKd. The binder in question is scFv combo. # 3 (scFv, scFv-80 with VH T28A; VL S26P; not shown: proprietary C-terminal FLAG tag) scFv: QVQLVQSGAEVKKPGASVKVSCKASGYAFTDYYLHWVRQAPGQGLEWMGWIDPENGDTEYAPKFQGRVTMTTDTSTSTAYMELRSLRSDDTAVYYCNANKELRYFDVWGQGTMVTVSSGGGGSGGGGSGGGGSEIVMTQSPATLSVSPGERATLSCRAPQSISINLHWYQQKPGQAPRLLIYFASQSISGIPARFSGSGSGTEFTLTISSLQSEDFAVYYCQQSNSFPLTFGGGTKVEIKR
10.54

Numbers sourced from patent US20110262445A1.
